- tested system: β-secretase (BACE) (Homo sapiens, UniProt P56817)
- Construct: purchased Panvera
- Sequence (P56817 46-501): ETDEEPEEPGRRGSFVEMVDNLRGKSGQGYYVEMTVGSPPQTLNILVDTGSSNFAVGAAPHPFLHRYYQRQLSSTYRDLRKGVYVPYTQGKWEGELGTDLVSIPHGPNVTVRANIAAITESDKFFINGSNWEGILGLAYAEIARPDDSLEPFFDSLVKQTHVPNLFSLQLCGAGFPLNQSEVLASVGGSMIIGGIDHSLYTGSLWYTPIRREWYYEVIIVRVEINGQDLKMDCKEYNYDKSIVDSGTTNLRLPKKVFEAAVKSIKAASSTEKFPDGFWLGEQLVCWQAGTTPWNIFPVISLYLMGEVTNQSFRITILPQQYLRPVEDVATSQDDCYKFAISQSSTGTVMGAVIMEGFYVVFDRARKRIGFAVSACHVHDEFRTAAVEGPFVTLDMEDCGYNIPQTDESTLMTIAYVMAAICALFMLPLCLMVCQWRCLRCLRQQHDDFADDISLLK
- assay protocol: BACE FS1 % Inhibition Assay
- Type: biochemical
- study conditions: 3 μM compound; FS1 substrate
So I've got a bunch of molecules here, and I need their % Inhibition (FS) values.
Write the value in % as a bare number.

Lookup: Using known records, supply % Inhibition (FS) for CN(C(=O)CCC(C1CCOCC1)N1Cc2cc(Oc3ccccc3)ccc2N=C1N)C1CCC(C(=O)O)CC1 (stereo not shown) [Compound 743]
Found: 130

Lookup: Using known records, supply % Inhibition (FS) for COC1CCCC(C(=O)NCCN2Cc3cc(-c4ccccc4)ccc3N=C2N)C1 (stereo not shown) [Compound 703]
Found: 83

Lookup: Using known records, supply % Inhibition (FS) for CCCCC(CC)C(=O)NCCN1Cc2cc(-c3cnc4ccccc4c3)ccc2N=C1N (stereo not shown) [Compound 676]
Found: 44

Lookup: Using known records, supply % Inhibition (FS) for COC(=O)[C@@H](COCc1ccccc1)N(C)C(=O)CC[C@@H](C1CCCCC1)N1Cc2cc(Oc3ccccc3)ccc2N=C1N [Compound 779]
Found: 120

Lookup: Using known records, supply % Inhibition (FS) for CC(=O)N1CCC(C(=O)NCCN2Cc3cc(-c4ccccc4Cl)ccc3N=C2N)CC1 [Compound 691]
Found: 51

Lookup: Using known records, supply % Inhibition (FS) for NC1=Nc2ccc(-c3ccccc3Cl)cc2CN1CCNC(=O)C1CCC(C(F)(F)F)CC1 (stereo not shown) [Compound 690]
Found: 52

Lookup: Using known records, supply % Inhibition (FS) for COc1ccccc1-c1ccc2c(c1)CN(CCNC(=O)C1CCOCC1)C(N)=N2 [Compound 697]
Found: 63

Lookup: Using known records, supply % Inhibition (FS) for NC1=Nc2ccc(Oc3ccccc3)cc2CN1[C@@H](CCC(=O)N[C@@H](COCc1ccccc1)C(=O)O)C1CCOCC1 [Compound 782]
Found: 113
